target: Recombinant full-length human IDO1 (Homo sapiens, UniProt P14902); construct: Recombinant full-length human IDO1 with a N-terminal hexahistidine tag; hexahistidine (His6) (N); made in house; host or cells: E. coli; assay: IDO1 enzymatic assay (NFK quantified by LCMS); format: biochemical; settings: 2 nM enzyme, 5 μM L-tryptophan, pH6.5, 30 minutes pre-incubation at RT; mean values when measured multiple times; read-out: hIDO activity (IC50 in nM)
Sequence (P14902 whole entry): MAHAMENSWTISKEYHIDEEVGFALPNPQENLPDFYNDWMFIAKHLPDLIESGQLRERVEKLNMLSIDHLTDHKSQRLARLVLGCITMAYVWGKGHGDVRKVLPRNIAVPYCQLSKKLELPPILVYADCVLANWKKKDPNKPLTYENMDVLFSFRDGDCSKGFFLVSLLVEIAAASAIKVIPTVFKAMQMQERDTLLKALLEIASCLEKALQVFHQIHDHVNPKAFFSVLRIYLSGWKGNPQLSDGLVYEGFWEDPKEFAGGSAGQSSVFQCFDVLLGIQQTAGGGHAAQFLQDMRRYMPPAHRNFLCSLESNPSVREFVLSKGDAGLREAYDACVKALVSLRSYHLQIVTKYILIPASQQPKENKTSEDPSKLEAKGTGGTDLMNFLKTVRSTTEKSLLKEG
metric: IC50 (nM)

Some solved entries appear below for comparison.
[[record]]
compound = "OCCCOc1ccc(-n2cc(C(O)c3c(-c4ccccc4)sc4cncn34)nn2)cc1Cl (racemic) [Example 267]"
unit_name = "nM"
result_number = 122

[[record]]
compound = "OC(c1cn(-c2ccc(CN3CCOCC3)cc2)nn1)c1c(C2CC2)sc2cncn12 (racemic) [Example 37]"
unit_name = "nM"
result_number = 175

[[record]]
compound = "O=C(Nc1ccc(-n2cc(C(O)c3c(C4CC4)sc4cncn34)nn2)cc1)N1CCOCC1 (racemic) [Example 104]"
unit_name = "nM"
result_number = 30.6

[[record]]
compound = "COc1cc(F)c(-n2cc(C(O)c3c(C4CC4)sc4cncn34)nn2)cc1Cl (racemic) [Example 300]"
unit_name = "nM"
result_number = 6.66

[[record]]
compound = "Nc1ccc(-n2cc(C(O)c3c(C4CC4)sc4cncn34)nn2)cc1Cl (racemic) [Example 278]"
unit_name = "nM"
result_number = 8.71

[[record]]
compound = "OC(c1cn(-c2ccc(OCC3(F)COC3)cc2)nn1)c1c(C2CC2)sc2cncn12 (racemic) [Example 145]"
unit_name = "nM"
result_number = 7.77

[[record]]
compound = "COC(=O)c1ccc(Cn2cc(C(O)c3c(C4CC4)sc4cncn34)nn2)cc1 (racemic) [Example 297]"
unit_name = "nM"
result_number = 16

[[record]]
compound = "OC(c1cn(-c2ccccc2)nn1)c1c(C2CC2)sc2cncn12 (racemic) [Example 2]"
unit_name = "nM"
result_number = 28.1

[[record]]
compound = "CCc1sc2cncn2c1C(O)c1cn(-c2ccc(C(=O)N(C)C)cc2)nn1 (racemic) [Example 114]"
unit_name = "nM"
result_number = 108

[[record]]
compound = "CCc1sc2cncn2c1C(O)c1cn(-c2ccc(NC(=O)C(C)C)cc2)nn1 (racemic) [Example 127]"
unit_name = "nM"
result_number = 8.21


A. CC(C)(C)OC(=O)Nc1ccc(-n2cc(C(O)c3c(-c4ccccc4)sc4cncn34)nn2)cc1 (racemic) [Example 251]
B. Cc1sc2cncn2c1C(O)c1cn(-c2ccc(C3(CO)CC3)cc2)nn1 (racemic) [Example 57]
C. COc1ccc(-n2cc(C(O)c3c(C4CC4)sc4cncn34)nn2)cc1O (racemic) [Example 216]
D. CC(=O)Nc1ccc(-n2cc(C(O)c3c(C4CC4)sc4cncn34)nn2)cc1 (racemic) [Example 95]
Sort the compounds on IC50; start with the lowest figure. Give the order by naming the labels one after another as requested.
D, C, B, A

P. Cc1sc2cncn2c1C(O)c1cn(-c2ccccc2)nn1 (racemic) [Example 17]
Q. COCCNC(=O)c1ccc(-n2cc(C(O)c3c(C4CC4)sc4cncn34)nn2)cc1 (racemic) [Example 102]
Input pair: P , Q . Output: entry with lower IC50. Pick one and reply with its label.
Q
(Q: 23.2 nM, P: 154 nM)

* * *

target: Recombinant full-length human IDO1 (Homo sapiens); construct: Recombinant full-length human IDO1 with a N-terminal hexahistidine tag; hexahistidine (His6) (N); made in house; host or cells: E. coli; assay: IDO1 enzymatic assay (NFK quantified by LCMS); assay type: biochemical; conditions: 2 nM enzyme, 5 μM L-tryptophan, pH6.5, 30 minutes pre-incubation at RT; mean values when measured multiple times; read-out: hIDO activity (IC50 in nM)
metric: IC50 (nM)

Guide cases for IC50, answers given:
[[record]]
compound = "O=C(NCc1ccco1)c1ccc(-n2cc(C(O)c3c(C4CC4)sc4cncn34)nn2)cc1 (racemic)"
unit_name = "nM"
result_number = 8.8

[[record]]
compound = "OC(c1cn(-c2cncnc2)nn1)c1c(C2CC2)sc2cncn12 (racemic)"
unit_name = "nM"
result_number = 182

[[record]]
compound = "COc1ccc(-n2cc(C(O)c3c(C)sc4cncn34)cn2)cc1 (racemic)"
unit_name = "nM"
result_number = 121

[[record]]
compound = "OC(c1ccc(-c2cncc3ccccc23)s1)c1c(C2CC2)sc2cncn12 (racemic)"
unit_name = "nM"
result_number = 138


a. OC(c1cn(-c2ccc(OC(F)(F)F)cc2)nn1)c1c(C2CC2)sc2cncn12 (racemic)
b. Cc1sc2cncn2c1C(O)c1cn(Cc2ccccc2)nn1 (racemic)
Hi, I'm comparing a with b and wondering which one has the bigger number for IC50. Any idea? Answer with the label corresponding to your selection.
b

* * *

Parameter: IC50. Scope: all listed entries.
target: Recombinant human TDO comprising amino acids 19-407 (Homo sapiens, UniProt P48775); construct: Recombinant human TDO comprising amino acids 19-407 with a N-terminal hexahistidine tag; hexahistidine (His6) (N); made in house; host or cells: E. coli; assay: TDO2 enzymatic assay (NFK quantified by LCMS); format: biochemical; settings: 15 nM enzyme, 200 μM L-tryptophan, pH7, 30 minutes pre-incubation at RT; mean values when measured multiple times; read-out: hTDO activity (IC50 in nM)
Sequence (P48775 19-406 limits assumed): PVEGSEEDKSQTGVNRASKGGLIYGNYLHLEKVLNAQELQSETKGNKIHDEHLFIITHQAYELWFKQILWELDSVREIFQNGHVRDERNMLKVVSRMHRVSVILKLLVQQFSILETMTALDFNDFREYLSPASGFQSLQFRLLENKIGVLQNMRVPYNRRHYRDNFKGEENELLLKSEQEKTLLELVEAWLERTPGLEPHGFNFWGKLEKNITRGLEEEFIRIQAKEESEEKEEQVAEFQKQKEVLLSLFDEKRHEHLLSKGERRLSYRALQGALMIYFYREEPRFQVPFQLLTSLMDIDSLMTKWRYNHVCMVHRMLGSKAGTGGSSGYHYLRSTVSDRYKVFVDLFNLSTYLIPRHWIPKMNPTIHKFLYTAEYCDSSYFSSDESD

[[record]]
compound = "COc1ccc(-n2cc(C(O)c3c([C@@H]4C[C@@H]4F)sc4cncn34)nn2)cc1 (relative stereo) [Example 93]"
experimental_target = "Recombinant human TDO comprising amino acids 19-407 (Homo sapiens, UniProt P48775)"
result = "> 10200 nM"

[[record]]
compound = "CCOc1ncc(-n2cc(C(O)c3c(C4CC4)sc4cncn34)nn2)cn1 (racemic) [Example 65]"
experimental_target = "Recombinant human TDO comprising amino acids 19-407 (Homo sapiens, UniProt P48775)"
result = "> 10200 nM"


Entry under review: OC(c1cn(Cc2ccccc2)nn1)c1c(C2CC2)sc2cncn12 (racemic) [Example 1] . Reported IC50?
> 10200 nM

GET /values?readout=IC50&item= CCc1sc2cncn2c1C(O)c1cn(-c2ccc(OCCC(C)(C)O)c(Cl)c2)nn1 (racemic) [Example 302]
> 10200 nM

Give its IC50 value. Item: COc1ccc(-n2cc(C(O)c3c(C4(C)CC4)sc4cncn34)nn2)cc1 (racemic) [Example 44]
> 10200 nM

The reported measurements were obtained from patent US20200405696A1.
